system: MALME-3M melanoma; test: NCI-60 one-dose screen, 48 h; settings: 10 µM unless noted
The panel holds about 83,000 compounds, 20% with a hit somewhere; the sample as a whole holds those more often. Active and inactive are the calls of the source. The calls were made as follows: active = growth percent below 10; inactive = the rest.
Would you mind answering with one of these outcomes? active, inactive

Use these answered entries as a reference point.
>>> assigned_category("COc1c(F)ccc(C(=O)Nc2ccc3nc(NC(=O)C4CCCN(S(=O)(=O)c5ccc(C#N)cc5)C4)sc3c2)c1F (centres undefined)")
"inactive"
>>> assigned_category("Nc1nc(-c2ccccc2)c(N=Nc2ccc(Cl)cc2[N+](=O)[O-])s1")
"inactive"
>>> assigned_category("CCOc1ccc(C(=O)NC(=S)Nc2ccc(S(N)(=O)=O)cc2)cc1")
"inactive"
>>> assigned_category("N#Cc1c(-c2cccnc2)cc(-c2ccc3ccccc3c2)[nH]c1=O")
"inactive"
>>> assigned_category("O=C(COc1ccc(NC(=O)Nc2ccc(Cl)c(Cl)c2)cc1)N=Nc1c(O)[nH]c2ccccc12")
"active"

Could you please tell me the result logged for CC(C)CSc1nc(NCCc2c[nH]c3ccccc23)c(C#N)c(-c2ccc(F)cc2)n1 in this assay?
inactive

Could you please tell me the result logged for O=C(/C=C/c1ccc(-c2ccccc2)cc1)c1nc2ccccc2n1Cc1ccc(F)cc1 in this assay?
active

Could you please tell me the result logged for CC1(C)CC[C@]2(C(=O)Nc3ccc(F)cc3)CC[C@]3(C)C(=CCC4[C@@]5(C)C[C@@H](O)[C@H](O)[C@@](C)(CO)C5CC[C@]43C)C2C1 (some centres undefined) in this assay?
inactive

Could you please tell me the result logged for C=C1CCC2C3(C)COC(c4ccc(F)cc4)OC3CCC2(C)C1CC(O)C1=CCOC1=O (centres undefined) in this assay?
inactive

###

system: UO-31 renal; assay: NCI-60 one-dose screen, 48 h (100 = growth as untreated, 0 = no growth, -100 = all killed); settings: 10 µM unless noted
The panel holds about 83,000 compounds, 20% with a hit somewhere; the sample as a whole holds those more often. Calls of active or inactive are those of the source. The calls were made as follows: active = growth percent below 10; inactive = the rest.
Property: growth

Known growth results, listed for orientation:
>>> observed("CC(=O)OC[C@@]1(C)C2CC[C@]3(C)C(CC=C4C5CC(C)(C)CC[C@]5(C(=O)Nc5ccc(C)cc5)CC[C@]43C)[C@@]2(C)C[C@@H](OC(C)=O)[C@@H]1OC(C)=O (stereo partly drawn)")
"40.9% (inactive)"
>>> observed("COc1c(F)ccc(C(=O)Nc2ccc3nc(NC(=O)C4CCCN(S(=O)(=O)c5cccc(Cl)c5)C4)sc3c2)c1F (stereo not drawn)")
"75.2% (inactive)"
>>> observed("Cn1cc(-c2nnc(N)nc2-c2c[nH]c3ccc(F)cc23)c2cccnc21")
"48.4% (inactive)"
>>> observed("CC(=O)Nc1ccc(-n2cnc3ccc(-c4ccc(O)cc4)cc32)cc1")
"46.2% (inactive)"
>>> observed("COc1ccc(-c2nc3ccc(C(=O)NN4C(=O)c5ccc([N+](=O)[O-])cc5C4=O)cc3[nH]2)cc1")
"88.6% (inactive)"
>>> observed("O=C(/C=C/c1cccc(OCc2ccc(F)cc2)c1)c1nc2ccccc2[nH]1")
"69.4% (inactive)"

Using the record for O=C(N/N=C/c1ccc(-c2ccc(O)cc2)s1)c1[nH]c2ccc(Br)cc2c1-c1ccccc1 , state its measured growth.
15.2% (inactive)

Using the record for COc1cc(/C=C/C(=O)c2ccccc2)ccc1Oc1nc(Nc2ccc(F)cc2)nc(N(C)C)n1 , state its measured growth.
27.3% (inactive)
